The reader will find reported growth inhibition values listed item by item below.
- Assay Overview: NCI Yeast Anticancer Drug Screen. Data for the mlh1 rad18 strain (AID 175)
- Applied Conditions: S. cerevisiae mlh1 rad18 strain growth inhibition; at 50.0 µM; hits give high values
This is part of a sample that, as a whole, favours compounds with a hit. Of some 79,000 tested, about 15% had one in any assay.
// units = %; emit number, no label

Consider the following illustrative entries.
- Compound: "O=C(CN1C(=O)c2ccccc2C1=O)NC(Cc1ccccc1)C(=O)O (stereo not drawn)"
  Measured Metric: "growth inhibition"
  Result Number: -9.65
- Compound: "CC(=O)NC1C(OC2C(CO)OC(OCC3OC(n4ccc(N)nc4=O)C(O)C3O)C(NC(C)=O)C2O)OC(CO)C(O)C1O (stereo not drawn)"
  Measured Metric: "growth inhibition"
  Result Number: 89.2
- Compound: "CCCCCCCCCCCCCCCC(=O)OCC(O)C1OC(=O)C(O)=C1O (stereo not drawn)"
  Measured Metric: "growth inhibition"
  Result Number: 46.7

I have this compound here, `COC(=NC(C)C)NC(C)C` , and I need its recorded growth inhibition.
14.4

Value lookup for growth inhibition; key = Cc1ccc(C)c(NC(=O)C(=O)C2C(=O)N(c3ccccc3)N=C2N)c1 (stereo not drawn)
-14

Fill blank: measured growth inhibition of the compound `O=C(NCCCl)NC(C1CC1)C1CC1` is ____.
-3.95

Given the entry `CN(C)CCNC(=O)c1cccc(C(=O)Nc2ccccc2)c1[N+](=O)[O-]` , report its measured growth inhibition.
-41.6

Entry `COc1cc([N+](=O)[O-])c(F)cc1F` has what growth inhibition?
-3.1

For `CSc1n[n+](-c2ccccc2)cs1` , what is its reported growth inhibition?
-3.35

---

- Assay Overview: NCI Yeast Anticancer Drug Screen. Data for the sgs1 mgt1 strain (AID 161);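 further: 0% = growth of cultures given vehicle only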
- Applied Conditions: S. cerevisiae sgs1 mgt1 strain, at 50.0 µM, hits give high values
About 79,000 compounds went through this panel and 15% of them were active in at least one assay; those are over-represented in the sample as a whole.
A collection of molecules and their measured growth inhibition
Respond with the bare value in %.

- Molecule: "COC1OC2COC1(OCc1ccccc1)C1OC(C)(C)OC21 (configuration not stated)"
  growth inhibition (%): -29.9
- Molecule: "CC1(C)CC2C(C1=O)C1(C)CCCC2(C)C1=O (configuration not stated)"
  growth inhibition (%): -26.6
- Molecule: "Cc1csc2nc(-c3ccccc3)[nH]c(=S)c12"
  growth inhibition (%): 10.9
- Molecule: "Cn1c(=O)c2c(ncn2Cc2ccccc2)n(C)c1=O"
  growth inhibition (%): 3.95
- Molecule: "CSC1=NC(C)(C)N=C(Oc2cc(Cl)cc(Cl)c2)N1"
  growth inhibition (%): -24.9
- Molecule: "COc1c(NC(=O)c2cccc(C(=O)Nc3cccc([N+](=O)[O-])c3OC)c2)cccc1[N+](=O)[O-]"
  growth inhibition (%): -19.9
- Molecule: "CCCCCOc1nc2c(c(=O)n(C)c(=O)n2C)n1C"
  growth inhibition (%): 4.65
- Molecule: "CNCC(C(=O)C(CNC)c1ccccc1)c1ccccc1 (configuration not stated)"
  growth inhibition (%): 11.4

Kindly review the next molecule as well.
Please report the recorded growth inhibition for `O=C1CCN(Cc2ccco2)C(=O)N1` .
10.9
